# tested-system: T1, PC7 (UniProt Q16549 142-667)
# T1 chain: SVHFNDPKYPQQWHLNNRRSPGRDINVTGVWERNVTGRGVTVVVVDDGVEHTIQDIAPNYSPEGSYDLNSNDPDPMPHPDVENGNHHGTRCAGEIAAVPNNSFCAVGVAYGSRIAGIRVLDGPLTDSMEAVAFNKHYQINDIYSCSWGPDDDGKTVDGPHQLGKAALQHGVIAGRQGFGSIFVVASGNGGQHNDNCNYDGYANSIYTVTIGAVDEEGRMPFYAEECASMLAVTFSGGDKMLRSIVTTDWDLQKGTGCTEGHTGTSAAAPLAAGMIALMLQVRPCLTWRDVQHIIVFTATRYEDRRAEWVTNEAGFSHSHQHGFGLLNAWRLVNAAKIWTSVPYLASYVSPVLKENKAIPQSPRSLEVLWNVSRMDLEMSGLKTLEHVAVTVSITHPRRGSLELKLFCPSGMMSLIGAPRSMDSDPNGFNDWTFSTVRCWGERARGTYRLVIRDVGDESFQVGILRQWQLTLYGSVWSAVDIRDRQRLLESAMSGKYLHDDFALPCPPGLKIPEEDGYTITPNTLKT
# run-description: enzyme inhibition
pKi: −log10 of the molar value. No end group written: not given here.
assay-metric: pKi

Consider the reported pKi for these binders:
- binder: "LLLLLLRVKR-NH2 [LLLLLLRVKR-NH2]"
  quantitative-result: 7.52
- binder: "LLLRVKR-NH2 [LLLRVKR-NH2]"
  quantitative-result: 7.30

A = LLLLLRVKR-NH2 [LLLLLRVKR-NH2]
B = RVKR-NH2 [RVKR-NH2]
C = LRVKR-NH2 [LRVKR-NH2]
D = LLRVKR-NH2 [LLRVKR-NH2]
Ask | Please list these binders in decreasing order of pKi. Please list the labels in the order you were asked to rank them.
Reply | A, D, C, B
